# Species: Rattus norvegicus
# ASSAY PROCEDURE: Open TG-GATES - Regimen: Daily Repeat
# Assay type: toxicity, organism-based, Sprague-Dawley
# Design: regimen Daily Repeat, gender Male, age 6 weeks
# MEASUREMENT CONTEXT: in vivo, po, 300 mg/kg, […], tissue Plasma, route gavage, dose level Middle, time 28 day
Listed here: items and their measured GLC.
// return numeric value only (unit: mg/dL, not printed)

[[record]]
compound = "COC1=CC(=O)C[C@@H](C)[C@]12Oc1c(Cl)c(OC)cc(OC)c1C2=O"
readout_value = 237.6

[[record]]
compound = "CCOc1ccc(NC(=O)CC(C)O)cc1 (stereo not given)"
readout_value = 188.8

[[record]]
compound = "NC(N)=Nc1nc(CSCCC(N)=NS(N)(=O)=O)cs1"
readout_value = 217.8

[[record]]
compound = "CCOC(=O)CCC(=O)O[C@H]1[C@H](O[C@@H]2[C@@H](C)[C@H](O[C@H]3C[C@@](C)(OC)[C@@H](O)[C@H](C)O3)[C@@H](C)C(=O)O[C@H](CC)[C@@](C)(O)[C@H](O)[C@@H](C)C(=O)[C@H](C)C[C@@]2(C)O)O[C@H](C)C[C@@H]1N(C)C [ERYTHROMYCIN ETHYLSUCCINATE]"
readout_value = 203.4


Next compound, GLC to be filled in.
If you can, please state the reported GLC value of COc1ccc2[nH]c([S+]([O-])Cc3ncc(C)c(OC)c3C)nc2c1 (stereo not given) .
221.8

====

# Organism: Rattus norvegicus
# ASSAY PROCEDURE: Open TG-GATES - Regimen: Single
# Type: toxicity, organism-based, Sprague-Dawley
# Design: regimen Single, gender Male, age 6 weeks
# MEASUREMENT CONTEXT: in vivo, po, 0 mg/kg, 9 h, tissue Blood, route gavage, dose level Control
PARAMETER: MCV (fL)
Quick note: give the figure in fL, leave out the unit.

Could you tell me which MCV is on file for CCOC(=O)CCC(=O)O[C@H]1[C@H](O[C@@H]2[C@@H](C)[C@H](O[C@H]3C[C@@](C)(OC)[C@@H](O)[C@H](C)O3)[C@@H](C)C(=O)O[C@H](CC)[C@@](C)(O)[C@H](O)[C@@H](C)C(=O)[C@H](C)C[C@@]2(C)O)O[C@H](C)C[C@@H]1N(C)C [ERYTHROMYCIN ETHYLSUCCINATE] ?
62.2

Try Cc1ccc(C)c(OCCCC(C)(C)C(=O)O)c1 [GEMFIBROZIL] next.
63.4

Next up: C[C@@H]1C[C@H]2[C@@H]3CCC4=CC(=O)C=C[C@]4(C)[C@@]3(F)[C@@H](O)C[C@]2(C)[C@@]1(O)C(=O)CO [DEXAMETHASONE]
63.7

====

# Species: Rattus norvegicus
# ASSAY PROCEDURE: Open TG-GATES - Regimen: Single
# Type: toxicity, organism-based, Sprague-Dawley
# Design: regimen Single, gender Male, age 6 weeks
# MEASUREMENT CONTEXT: in vivo, po, 30 mg/kg, 9 h, tissue Kidney, route gavage, dose level Middle
PARAMETER: KIDNEY_L (g)
// note: answer is a bare numeric in g

Known results for compounds:
[[record]]
chemical_smiles = "CN(C)CCCN1c2ccccc2CCc2ccc(Cl)cc21"
readout_value = 1

[[record]]
chemical_smiles = "CC1=C(/C=C/C(C)=C/C=C/C(C)=C/CO)C(C)(C)CCC1"
readout_value = 0.9

[[record]]
chemical_smiles = "CN(C)CCCN1c2ccccc2CCc2ccccc21"
readout_value = 0.9


Alright, here's another compound for you.
Please give the measured KIDNEY_L for this compound: `CN(C)CCN(Cc1cccs1)c1ccccn1`
0.8
